B1: NELF-E aptamer (parent)
chain: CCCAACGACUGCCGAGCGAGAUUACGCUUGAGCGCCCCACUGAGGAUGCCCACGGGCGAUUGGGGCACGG

variants of: B1; assay: HiTS-RAP; settings: with NELF-E (Drosophila)
The label is satisfied for Kd below 7 nM and not satisfied for Kd equal to or exceeding 7 nM.

Illustrative cases are given below, each with its answer.
A24G C37U; not satisfied
C13G U22C; satisfied
A31U C53U; satisfied
U10G C38A; not satisfied
A4U U29G; satisfied
U22G A67G; satisfied
A5G A52U; not satisfied
U41G A43U; not satisfied
C9G A67G; satisfied
C6G A19G; satisfied

Could you please tell me whether Kd recorded for C6U G56U is less than 7 nM? satisfied

Could you please tell me whether Kd recorded for C9G G65C is less than 7 nM? not satisfied

Could you please tell me whether Kd recorded for U23G A43U is less than 7 nM? not satisfied

Could you please tell me whether Kd recorded for C13G G65U is less than 7 nM? satisfied

Could you please tell me whether Kd recorded for G16U U22G is less than 7 nM? satisfied

Could you please tell me whether Kd recorded for U47C is less than 7 nM? not satisfied

Could you please tell me whether Kd recorded for A5G A31G is less than 7 nM? not satisfied

Could you please tell me whether Kd recorded for C12G U28A is less than 7 nM? satisfied

Could you please tell me whether Kd recorded for C12G U28C is less than 7 nM? not satisfied

Could you please tell me whether Kd recorded for A4G C51G is less than 7 nM? satisfied

Could you please tell me whether Kd recorded for G70A is less than 7 nM? satisfied

Could you please tell me whether Kd recorded for U29G A43U is less than 7 nM? not satisfied
